// data source = PubChem BioAssay (Tox21)

Measurement notes: qHTS RealTime-Glo MT Cell Viability Assay in HEK293 cells - 32 hour (AID 1224868); also: nearly all actives have a fitted effect of over 50% in size
Reported conditions: RealTime-Glo luminescence; series mostly up to 76.8 µM
Inconclusive results are not listed. The source made the active and inactive calls. Calls follow the shape of the dose curve; as a rule, active = well fitted cell-killing curve with a large enough effect in the repeat runs; inconclusive = weak or mixed curves, or effect the other way; inactive = flat fitted curve, though single readings scatter.
I would appreciate it if you answered using one of these outcomes: active, inactive

>>> label_value("CCOc1nc(F)cc2nc(S(=O)(=O)Nc3c(Cl)cccc3C(=O)OC)nn12")
"inactive"
>>> label_value("Cc1cccc(C)c1C")
"inactive"
>>> label_value("CCCCCCCCOC(=O)c1cc(O)c(O)c(O)c1")
"active"

Prompt line: Check the results log: what was the call for CCc1c(C)cc(N)c(CC)c1N ?
Response line: inactive

Prompt line: Check the results log: what was the call for COc1cccc(-c2ccc(/C=C\CN3CCCCCC3)cc2Cl)c1 ?
Response line: active

Prompt line: Check the results log: what was the call for Cn1c(=O)[nH]c2ncn(C)c2c1=O ?
Response line: inactive

Prompt line: Check the results log: what was the call for CCn1c2ccccc2c2ccccc21 ?
Response line: inactive

Prompt line: Check the results log: what was the call for Brc1cc(Br)cc(Br)c1 ?
Response line: inactive

Prompt line: Check the results log: what was the call for CN[C@H]1CC[C@@H](c2ccc(Cl)c(Cl)c2)c2ccc(S(N)(=O)=O)cc21 ?
Response line: active

Prompt line: Check the results log: what was the call for Cc1c[nH]c(=O)[nH]c1=O ?
Response line: inactive

Prompt line: Check the results log: what was the call for Cc1cccc2c1ccc1ccccc12 ?
Response line: inactive

Prompt line: Check the results log: what was the call for CCCCCCCCCCCCCCCCCCNC(=O)OC1CCN(C(=O)OC[C@H](COC(=O)N(Cc2cccc[n+]2CC)C(=O)c2ccccc2OC)OC)CC1 ?
Response line: active

* * *

Measurement notes: qHTS assay to identify small molecule antagonists of the estrogen related receptor signaling pathway with the pleiotropic PPARgamma coactivator (PGC) from Tox21 10K library - cell viability counter screen (AID 1224840); also: nearly all actives have a fitted effect of over 40% in size
Reported conditions: PGC/ERR reporter cells viability, CellTiter-Fluor, 17.5 h; series mostly up to 92.4 µM
Method: National Center for Advancing Translational Sciences [NCATS] NIH Chemical Genomics Center [NCGC] U.S. Environmental Protection Agency [EPA] National Institutes of Environmental Health Sciences [NIEHS] National Toxicology Program [NTP] […] The PGC/ERR cells were dispensed at 2,000 cells/5 ul/well in 1536-well white plates using a Multidrop dispenser. […] After 30-minute incubation at 37 C/5% CO2, the fluorescence intensity in the plates was measured using a ViewLux plate reader.
Records with an inconclusive call do not appear. Activity calls are given as the source filed them. Calls follow the shape of the dose curve; as a rule, active = well fitted cell-killing curve with a large enough effect in the repeat runs (not every such curve was filed as active); inconclusive = weak or mixed curves, or effect the other way; inactive = no such curve, though single readings can be large or run the other way.
I would appreciate it if you answered using one of these outcomes: 1.0 for active, 0.0 for inactive

Prompt line: Check the results log: what was the call for C=CC(=O)OCC(Br)CBr (stereo unspecified) ?
Response line: 0.0

Prompt line: Check the results log: what was the call for CN1CC[C@H](c2c(O)cc(O)c3c(=O)cc(-c4ccccc4Cl)oc23)[C@H](O)C1 ?
Response line: 0.0

Prompt line: Check the results log: what was the call for COc1cccc(-c2ccc(/C=C\CN3CCCCCC3)cc2Cl)c1 ?
Response line: 1.0

Prompt line: Check the results log: what was the call for Clc1ccc2c(Cl)ccnc2c1 ?
Response line: 0.0

Prompt line: Check the results log: what was the call for O=C(Nc1ccc([N+](=O)[O-])cc1)Nc1ccc([N+](=O)[O-])cc1 (tested in a mixture with another compound) ?
Response line: 0.0

Prompt line: Check the results log: what was the call for Cc1ccc(S(=O)(=O)C(I)I)cc1 ?
Response line: 1.0

Prompt line: Check the results log: what was the call for NC(=O)c1ccccc1Cl ?
Response line: 0.0

Prompt line: Check the results log: what was the call for Nc1cc([N+](=O)[O-])cc(Cl)c1O ?
Response line: 0.0

Prompt line: Check the results log: what was the call for CCc1cccc(C)c1N(C(=O)C(=O)O)C(C)COC (stereo unspecified) ?
Response line: 0.0

Prompt line: Check the results log: what was the call for O=C(CCN1CCC(c2ccccc2)C1)c1ccc2c(c1)OCCO2 (stereo unspecified) ?
Response line: 0.0

Prompt line: Check the results log: what was the call for Cc1c[nH]c(=O)[nH]c1=O ?
Response line: 0.0

Prompt line: Check the results log: what was the call for CCCC(C)C=O (stereo unspecified) ?
Response line: 0.0

Prompt line: Check the results log: what was the call for CCCCCCCC/C=C\CCCCCCCC(=O)N(CCO)CCO ?
Response line: 0.0

Prompt line: Check the results log: what was the call for Cc1ccc2nc(-c3ccc(N)cc3)sc2c1S(=O)(=O)O ?
Response line: 0.0

Prompt line: Check the results log: what was the call for CC1=C(/C=C/C(C)=C/C=C/C(C)=C\C(=O)O)C(C)(C)CCC1 ?
Response line: 0.0

Prompt line: Check the results log: what was the call for CC(C)c1ccc2sc3ccccc3c(=O)c2c1 ?
Response line: 0.0

Prompt line: Check the results log: what was the call for C1=CCCC1 ?
Response line: 0.0

Prompt line: Check the results log: what was the call for c1ccc(-c2ccccc2-c2ccccc2)cc1 ?
Response line: 0.0

Prompt line: Check the results log: what was the call for CCCCCCCCCCCCCCCCC(C(=O)O)C(O)(CC(=O)O)C(=O)O (stereo unspecified) ?
Response line: 0.0
